- SYSTEM_TESTED: Stromelysin-1 (Homo sapiens) (UniProt P08254);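 also: recombinant enzyme, inhibition read after a 30 min incubation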
- Sequence (P08254 100-477 limits assumed): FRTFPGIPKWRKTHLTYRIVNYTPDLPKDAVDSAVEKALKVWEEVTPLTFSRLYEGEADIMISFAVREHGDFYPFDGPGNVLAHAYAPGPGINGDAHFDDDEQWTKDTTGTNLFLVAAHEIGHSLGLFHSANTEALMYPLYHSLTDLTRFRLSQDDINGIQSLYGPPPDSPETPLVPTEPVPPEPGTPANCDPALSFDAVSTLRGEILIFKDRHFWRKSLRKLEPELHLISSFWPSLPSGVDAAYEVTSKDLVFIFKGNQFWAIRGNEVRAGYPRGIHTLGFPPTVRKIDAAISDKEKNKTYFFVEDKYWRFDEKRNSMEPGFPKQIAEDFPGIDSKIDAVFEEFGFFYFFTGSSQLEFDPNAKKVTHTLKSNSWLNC
- CONDITION_SUMMARY: at 1 mM
READOUT_TYPE: inhibition
Units required after the number.

Known results for compounds:
1. Nc1[nH]cnc2ncnc1-2; 10%
2. Cc1ccc2cccc(O)c2n1; 71%
3. Cn1cccc(O)c1=O; -3%
4. CCc1c(O)c(=O)ccn1CC; 9%
5. O=C(O)c1ccc2ccccc2n1; 73%
6. CCc1c(O)c(=S)ccn1CC; 99%
7. O=C(O)c1ccc2cccc(O)c2n1; 94%
8. Cc1occc(=S)c1O; 98%

Bench note, Stromelysin-1 (Homo sapiens) (UniProt P08254): `NC(=O)c1ccccc1O` , inhibition reads 1%

Bench note, Stromelysin-1 (Homo sapiens) (UniProt P08254): `O=C(O)c1ccccn1` , inhibition reads 99%

Bench note, Stromelysin-1 (Homo sapiens) (UniProt P08254): `Oc1cccc2cccnc12` , inhibition reads 83%

Bench note, Stromelysin-1 (Homo sapiens) (UniProt P08254): `O=c1cccccc1O` , inhibition reads 95%

Bench note, Stromelysin-1 (Homo sapiens) (UniProt P08254): `O=C(O)c1cccc2cccnc12` , inhibition reads 77%
